- testedOn: recombinant human GALK1 (Homo sapiens)
- procedureDetails: hGALK1 biochemical activity assay (Kinase-Glo Plus, ATP depletion)
- protocolConditions: recombinant human GALK1, Kinase-Glo Plus ATP depletion; read-out: hGALK
Assignment: determine reported IC50 for the given compounds.
Give bare numbers, in µM.

In the examples that follow, each entry is paired with its recorded IC50.
>>> measured("CC1=C(C(=O)Nc2ccccn2)C(c2ccccc2Cl)N=C(Nc2nc3ccc(F)cc3o2)N1 (stereo not shown) [Compound 43]")
4.32
>>> measured("CCn1ncc(CNC(=O)C2=C(C)NC(Nc3nc4ccc(F)c(N)c4o3)=NC2c2ccc(C)cc2Cl)c1F (stereo not shown) [Compound 133]")
0.11

Please report IC50 for every entry that follows.
1. COc1cccc(C2N=C(Nc3nc4ccc(F)cc4o3)NC(C)=C2C(=O)Nc2cc(C(=O)O)ccn2)c1Cl (stereo not shown) [Compound 52]
2. CC1=C(C(=O)Nc2ccccc2C(=O)O)C(c2ccccc2Cl)N=C(Nc2nc3ccccc3o2)N1 (stereo not shown) [Compound 159]

Result:
1. 6.85
2. 34.4

###

- testedOn: recombinant human GALK1 (Homo sapiens, UniProt P51570)
- Sequence (P51570 whole entry): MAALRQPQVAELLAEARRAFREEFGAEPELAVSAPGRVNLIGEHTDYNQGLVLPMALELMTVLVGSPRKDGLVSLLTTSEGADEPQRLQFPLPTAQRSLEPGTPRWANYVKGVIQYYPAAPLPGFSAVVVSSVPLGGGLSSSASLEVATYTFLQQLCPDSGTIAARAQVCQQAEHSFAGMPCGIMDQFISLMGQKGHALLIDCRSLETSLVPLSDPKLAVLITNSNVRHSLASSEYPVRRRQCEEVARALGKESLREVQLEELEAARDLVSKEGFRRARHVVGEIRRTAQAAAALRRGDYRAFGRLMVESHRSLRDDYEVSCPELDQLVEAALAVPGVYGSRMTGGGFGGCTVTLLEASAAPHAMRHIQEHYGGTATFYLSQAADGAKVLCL
- procedureDetails: hGALK1 biochemical activity assay (Kinase-Glo Plus, ATP depletion)
- protocolConditions: Tables 2-15; 35 μM ATP, 100 μM galactose, 1 h; bracketed figure after some values (e.g. −1.2) is undefined and not reported; read-out: hGALK IC50
The label is rule met for IC50 below 5 µM and rule not met for IC50 equal to or exceeding 5 µM.

Check out these entries, answers already filled in.
>>> labelclass("CC1=C(C(=O)Nc2nnc(-c3ccncc3)s2)C(c2ccccc2Cl)N=C(Nc2nc3ccccc3o2)N1 (stereo not shown)")
"rule not met"
>>> labelclass("CC1=C(C(=O)Nc2cc(C(=O)O)ccn2)C(c2ccc(C)cc2Cl)N=C(Nc2nc3cccnc3o2)N1 (stereo not shown)")
"rule not met"
>>> labelclass("CC1=C(C(=O)Nc2cc(C#N)ccn2)C(c2ccccc2Cl)N=C(Nc2nc3ccc(F)cc3o2)N1 (stereo not shown)")
"rule met"
>>> labelclass("CC1=C(C(=O)Nc2cc(C(=O)O)ccn2)[C@H](c2ccc(C)cc2Cl)N=C(Nc2nc3ccc(F)cc3o2)N1")
"rule not met"
>>> labelclass("CC1=C(C(=O)NCc2cnn(C)c2C)C(c2ccc(C)cc2Cl)N=C(Nc2nc3ccc(F)cc3o2)N1 (stereo not shown)")
"rule met"
>>> labelclass("CC1=C(C(=O)Nc2cc(C(=O)O)ccn2)C(c2ccc(C(=O)O)cc2Cl)N=C(Nc2nc3ccc(F)cc3o2)N1 (stereo not shown)")
"rule met"

Query: Identify whether the compound CC1=C(C(=O)Nc2cc(C(=O)O)ccn2)C(c2ccccc2Cl)N=C(Nc2nc3c(Cl)cccc3o2)N1 (stereo not shown) records IC50 below 5 µM.
Result: rule not met

###

Assignment: determine reported Sol. for the given compounds.
- procedureDetails: aqueous kinetic solubility
- protocolConditions: aqueous kinetic solubility
Numbers only, in µg/mL.

Please report Sol. for every entry that follows.
1. CC1=C(C(=O)Nc2ccc(N3CCNCC3)cc2)C(c2ccccc2Cl)N=C(Nc2nc3ccccc3o2)N1 (stereo not shown)
2. CCn1nc(C)c(CNC(=O)C2=C(C)NC(Nc3nc4ccc(F)c(N)c4o3)=NC2c2ccc(C)cc2Cl)c1F (stereo not shown)
3. CC1=C(C(=O)Nc2cncc(C(=O)O)c2)C(c2ccccc2Cl)N=C(Nc2nc3ccccc3o2)N1 (stereo not shown)
4. O=C1CC(C(=O)O)CC2=C1C(c1ccccc1Cl)N=C(Nc1nc3ccccc3o1)N2 (stereo not shown)

Result:
2.416
1.53
60.3
52.63
